Attribution: PubChem BioAssay (NCI)

System: MDA-MB-231 breast
Test: NCI-60 one-dose screen, 48 h (100 = growth as untreated, 0 = no growth, -100 = all killed)
Conditions: 10 µM unless noted
The panel holds about 83,000 compounds, 20% with a hit somewhere; the sample as a whole holds those more often.
readout type: growth (%)
Value expressed in %; do not type the unit.

compound=NC(=O)CN1C(=O)c2ccccc2C1=O readout_type=growth unit_abbreviation=% numeric_value=101
compound=N#Cc1ccc(Oc2ccc3ccc(=O)oc3c2)cc1 readout_type=growth unit_abbreviation=% numeric_value=98.5
compound=Cc1nc(C)c(C)nc1C readout_type=growth unit_abbreviation=% numeric_value=108
compound=C#Cc1cccc(Nc2ncnc3ccc(NC(=O)c4ccccc4)cc23)c1 readout_type=growth unit_abbreviation=% numeric_value=95.6
compound=C[C@@H]1C(=O)[C@@H]2C[C@@H](O)[C@@H](O)C[C@]2(C)[C@H]2CC[C@@]3(C)C(=C12)CC[C@@H]3[C@@](C)(O)[C@H](O)CCC(C)(C)O readout_type=growth unit_abbreviation=% numeric_value=107

Looking for the measured growth of `O=C(O)c1cn(C2CC2)c2cc(N3CCN(C(=O)CSc4nnc(-c5ccc(Cl)cc5)n4-c4ccccc4)CC3)c(F)cc2c1=O` , can you help?
106

Using the record for `CSc1nc(-c2ccco2)c2c(N)[nH]nc2n1` , report its growth.
99.1

What measured growth goes with `COC(=O)/C=C1\SC(=Nc2cccc(OC)c2)N(CCc2c[nH]c3ccccc23)C1=O` ?
66.1

Form field: reported growth of O=C1CC23OC(C(O)c4ccccc4N12)C1C(c2ccccc2)=NOC13 (stereo not given)
52.9

Which growth value is on record for `COc1cc(/C=N/Nc2nc(-c3ccc(F)cc3)c(C#N)c(N3CCOCC3)n2)ccc1O` ?
99.8

----------
Test system: PC-3 prostate
Test: NCI-60 one-dose screen, 48 h
Conditions: 10 µM unless noted
About 83,000 compounds went through this panel and 20% of them were active in at least one assay; those are over-represented in the sample as a whole. Calls of active or inactive are those of the source. The calls were made as follows: active = growth percent below 10; inactive = the rest.
Thanks in advance; please answer with one of these: active, inactive

molecule=COc1ccc(NC(=O)c2ccc(Nc3ncnc4[nH]c(C)c(C)c34)cc2)cc1 answer_label=inactive

Hi, sorry to bother you, what did the test record for `O=C(Nc1nc(-c2ccccc2Cl)cs1)c1cc(-c2ccc(Br)cc2)nc2ccccc12` ?
inactive

----------
Test system: T-47D breast
Experiment: NCI-60 one-dose screen, 48 h (100 = growth as untreated, 0 = no growth, -100 = all killed)
Conditions: 10 µM unless noted
Compounds without any hit were thinned out: in the full panel of roughly 83,000, 20% have a hit.
// reported growth for each item listed
Write down the numeric answer in % and omit the unit.

Some solved cases for reference:
molecule="CC(=O)Nc1c(C(=O)Nc2ccccc2)sc2nc3c(cc12)C(OC(C)=O)CCC3 (stereo not given)" numeric_value=93.5
molecule=CC(=O)[C@@H]1CC[C@]2(C(=O)O)CC[C@]3(C)[C@H](CC[C@@H]4[C@@]5(C)Cc6c([nH]c7ccccc67)C(C)(C)[C@@H]5CC[C@]43C)[C@@H]12 numeric_value=65.5
molecule=O=C1Nc2ccc(Cl)cc2/C1=N/c1nc(-c2ccc(F)cc2)cs1 numeric_value=25.3

In the following, a different molecule is considered.
Quick check: growth of COc1cc(C(C)c2ccc3c(ccn3C)c2)cc(OC)c1OC (stereo not given) ?
57.3

----------
Readings of growth for the listed molecules
System: SNB-19 CNS
Test: NCI-60 one-dose screen, 48 h (100 = growth as untreated, 0 = no growth, -100 = all killed)
Settings: 10 µM unless noted
The panel holds about 83,000 compounds, 20% with a hit somewhere; the sample as a whole holds those more often. The source made the active and inactive calls. The calls were made as follows: active = growth percent below 10; inactive = the rest.

molecule=COc1ccc(N(C)c2nc(Cl)nc3ccn(C)c23)cc1 result="25.3% (inactive)"
molecule=Nn1c(SCC(=O)Nc2ccc(Cl)cc2)nnc1-c1cc(F)c(Cl)cc1Cl result="98% (inactive)"
molecule=COC(=O)/C=C1\SC(=Nc2cccc(OC)c2)N(CCc2c[nH]c3ccccc23)C1=O result="72.9% (inactive)"
molecule=Cn1cc(-c2ccc3c(c2)ncn3-c2ccc(CC(=O)Nc3cc(C(C)(C)C)on3)cc2)cn1 result="58.5% (inactive)"

Request the reported growth associated with CC(=O)OCC1SC(OC(C)=O)C(NC(=O)/C=C/CCl)C(OC(C)=O)C1OC(C)=O (stereo not drawn)
111% (inactive)

Look at this molecule and give its reported growth. `CCCn1c(N)c(C(N)=O)sc1=S`
97.2% (inactive)

Which growth reading was recorded for the molecule COc1cc(C2=NN(c3ccccc3)C(c3cccc(Nc4ccnc5cc(C(F)(F)F)ccc45)c3)C2)cc(OC)c1OC (stereo not drawn) ?
92.8% (inactive)

Which growth reading was recorded for the molecule `CC[C@]12C=CCN3CC[C@@]4(c5cc(NC(=O)CCC(=O)O[C@H]6CC[C@H]7[C@@H]8CC[C@H]9CC(=O)CC[C@]9(C)[C@H]8CC[C@]67C)c(OC)cc5N(C)[C@H]4[C@@](O)(C(=O)OC)[C@@H]1OC(C)=O)[C@@H]32` ?
84.7% (inactive)

----------
Attribute: growth
System: HOP-62 NSCLC
Test: NCI-60 one-dose screen, 48 h (100 = growth as untreated, 0 = no growth, -100 = all killed)
Details: 10 µM unless noted
The panel holds about 83,000 compounds, 20% with a hit somewhere; the sample as a whole holds those more often.
Record the value in %, omitting the unit from your answer.

Completed entries (count: 2):
smiles_notation=Cc1c(C(=O)Nc2nc3ccccc3[nH]2)cnn1-c1ccccn1 target_desc="HOP-62 NSCLC" numeric_value=107
smiles_notation=CC1CCN(CCCCCOc2ccc3oc4ccccc4c(=O)c3c2)CC1 target_desc="HOP-62 NSCLC" numeric_value=98.6

Need growth of `COc1ccc([C@H]2[C@@H](F)C(=O)N2c2cc(OC)c(OC)c(OC)c2)cc1F` , thanks.
31.8

Quick check: growth of `C#C[C@@]1(O)[C@@H](CO)O[C@@H](n2cc(-c3ccco3)c3c(N)ncnc32)[C@@H]1O` ?
67.7

Requested read-out: growth. Entry: `CN1C(=O)c2cc(Cl)nc3c(NC(=O)c4cccc(Cl)c4)c(Cl)c(NC(=O)c4cccc(Cl)c4)c1c23`
17.4

Form field: reported growth of `COc1ccc2c(c1)OC13Oc4cc(OC)ccc4C=C1CCCCC3=C2`
99.3

----------
Test system: SF-268 CNS
Test: NCI-60 one-dose screen, 48 h (100 = growth as untreated, 0 = no growth, -100 = all killed)
Conditions: 10 µM unless noted
Compounds without any hit were thinned out: in the full panel of roughly 83,000, 20% have a hit.
We use 50% as the dividing line for growth: on or above the line is fulfilled, below is not fulfilled.

molecule=CSc1nc(-c2cccs2)c2c(N)[nH]nc2n1 answer_label=fulfilled
molecule=Cc1c(Cl)cccc1NC(=O)c1sc2nc3c(cc2c1N)CN(Cc1ccccc1)CC3 answer_label="not fulfilled"
molecule=NS(=O)(=O)c1ccc(N2Cc3cc(Cl)ccc3OC3=C2C(=O)N(CC2CCCCC2)C3=O)cc1 answer_label="not fulfilled"
molecule=c1ccc(-c2cn3ccnc3c(-c3ccc4c(c3)ncn4C3CCCCC3)n2)cc1 answer_label=fulfilled
molecule=CC(C)CSc1nc(Nc2ccccc2)c(C#N)c(-c2ccc(F)cc2)n1 answer_label="not fulfilled"
molecule=CCOc1ccccc1C(=O)/C=C/c1cc2ccccc2[nH]c1=O answer_label="not fulfilled"
molecule=COc1cc(C(=O)N2CCN(c3ccccc3OC)CC2)c(NC(=O)c2cnccn2)cc1OCc1ccccc1 answer_label=fulfilled
molecule=O=C1Nc2ccc(Cl)cc2/C1=N/c1nc(-c2ccc(F)cc2)cs1 answer_label="not fulfilled"
molecule=O=C(CN1N=C(c2ccc(F)cc2)CCC1=O)Nc1nc2ccccc2s1 answer_label="not fulfilled"
molecule="O=C1NN(c2ccccc2)C(c2ccc3c(c2)OCO3)N2CCC[C@@H]12 (stereo partly specified)" answer_label=fulfilled

Check if growth >= 50% (inclusive). Item: O=C1CC23OC4ON=C(Br)C4C2C(O)c2ccccc2N13 (stereo unspecified)
fulfilled

Determine whether measured growth meets or exceeds 50% for `CCCCCOC(=O)c1ccccc1O`
fulfilled

Could you tell me if the measured growth of `CC(=O)Oc1ccc(O)cc1` reaches 50% or more?
fulfilled

Identify whether the reported growth of the following molecule is 50% or greater: `CC(C)NS(=O)(=O)c1cccc(-c2ccc3c4c(n(CCCN(C)C)c(=O)c3c2)-c2ccccc2C4=O)c1`
fulfilled

Reported growth at or above 50%? `Cc1ccn2c3c(c(C(=O)O)c2c1)C(=O)c1ccccc1C3=O`
fulfilled

Could you please find out whether `N#Cc1c(NC(=O)c2cccs2)[n+]([O-])c2cc(C(F)(F)F)ccc2[n+]1[O-]` has growth that meets 50% or exceeds it?
fulfilled

State whether the measured growth reaches 50%, counting equality as reaching it, for COc1ccc(C2N(c3cc(OC)c(OC)c(OC)c3)C(=O)C2(F)F)cc1F (stereo unspecified)
fulfilled
